Test: Cytotoxicity against human HEL cells assessed as reduction of cell growth
Assay type: cell-based
Catalogue of CC50 readings, one per entry.

Value of CC50 reported for the compound `Nc1ccc(OCc2n[nH]c(=S)n2-c2ccccc2)cc1` is > 50 µg/mL

For reference, reported CC50 for `C=CCn1c(COc2ccc(NC(=S)NC)cc2)n[nH]c1=S` stands at > 50 µg/mL

Record `CCn1c(COc2ccc(N)cc2)n[nH]c1=S` , field CC50: > 50 µg/mL

Lab note: `C=CCNC(=S)Nc1ccc(OCc2n[nH]c(=S)n2-c2ccccc2)cc1` gave CC50 of > 50 µg/mL

Reported CC50 of Nc1ccn(C[C@@H](CO)OCP(=O)(O)O)c(=O)n1.O.O [CIDOFOVIR] : ≥ 18 µg/mL

Lookup result for `CCn1c(COc2ccc(NC(=S)Nc3ccccc3)cc2)n[nH]c1=S` ; measured CC50: > 50 µg/mL

Entry `C=CCn1c(COc2ccc(NC(=S)NCC)cc2)n[nH]c1=S` — recorded CC50 = > 50 µg/mL

CC50 recorded for this compound, `CCn1c(COc2ccc(NC(=S)NC)cc2)n[nH]c1=S` , is > 50 µg/mL

// sample `C=CCNC(=S)Nc1ccc(OCc2n[nH]c(=S)n2CC)cc1` , its CC50 was > 50 µg/mL

Short answer for `S=C(Nc1ccccc1)Nc1ccc(OCc2n[nH]c(=S)n2-c2ccccc2)cc1` : CC50 was > 50 µg/mL

Briefly, CC50 measured for Nc1nc2c(ncn2COC(CO)CO)c(=O)[nH]1 [GANCICLOVIR] : 87 µg/mL

---

Test system: Human alphaherpesvirus 1
Assay: Antiviral activity against HSV1 KOS in human HEL cells assessed as reduction of virus-induced cytopathogenicity
Format: functional
Details: Human alphaherpesvirus 1, KOS
QUANTITY_KIND: MIC

Example entries and their recorded answers appear below.
| INPUT_SMILES | MIC |
| --- | --- |
| Cn1c(COc2ccc(NC(=S)Nc3ccccc3)cc2)n[nH]c1=S | > 80 µg/mL |
| S=C(Nc1ccccc1)Nc1ccc(OCc2n[nH]c(=S)n2-c2ccccc2)cc1 | > 80 µg/mL |
| S=C(Nc1ccc(Cl)cc1)Nc1ccc(-c2n[nH]c(=S)n2-c2ccccc2)cc1 | > 16 µg/mL |
| Cn1c(COc2ccc(N)cc2)n[nH]c1=S | 400 µg/mL |
| CNC(=S)Nc1ccc(OCc2n[nH]c(=S)n2-c2ccccc2)cc1 | > 400 µg/mL |
| S=C(Nc1ccccc1)Nc1ccc(-c2n[nH]c(=S)n2-c2ccccc2)cc1 | > 80 µg/mL |
| Nc1nc2c(ncn2COC(CO)CO)c(=O)[nH]1 | 0.032 µg/mL |
| C=CCn1c(COc2ccc(NC(=S)Nc3ccccc3)cc2)n[nH]c1=S | > 80 µg/mL |
| C=CCn1c(COc2ccc(NC(=S)NC)cc2)n[nH]c1=S | > 400 µg/mL |
| CCCCCCNC(=S)Nc1ccc(-c2n[nH]c(=S)n2CC)cc1 | > 80 µg/mL |

Reported MIC ( `C=CCNC(=S)Nc1ccc(OCc2n[nH]c(=S)n2CC=C)cc1` ) = 240 µg/mL

For reference, reported MIC for `O=c1[nH]c(=O)n([C@H]2C[C@H](O)[C@@H](CO)O2)cc1/C=C/Br` stands at 0.0768 µg/mL

get_value(item= `C=CCn1c(-c2ccc(NC(=S)Nc3ccccc3)cc2)n[nH]c1=S` , readout=MIC) returns > 16 µg/mL

Entry `CNC(=S)Nc1ccc(OCc2n[nH]c(=S)n2C)cc1` , MIC reported as > 400 µg/mL

// `CNC(=S)Nc1ccc(-c2n[nH]c(=S)n2-c2ccccc2)cc1` : MIC value = 240 µg/mL

Notebook: `C=CCNC(=S)Nc1ccc(-c2nnc(SCc3ccc(Cl)cc3Cl)n2-c2ccccc2)cc1` , MIC read as > 16 µg/mL
